Give measured 5-HT (inhibition of reuptake of serotonin, % inhibition) for each item. Keep answers brief.
biological target: serotonin (5-HT) reuptake (Rattus norvegicus, UniProt P31652); construct: synaptosomes are freshly isolated from areas of the rat brain; from tissue; host or cells: rat brain synaptosomes (P2 fraction); assay: Inhibition of serotonin (5HT) reuptake in synaptosomes from rat brain; type: biochemical; conditions: test concentration of 10 μM
Sequence (P31652 whole entry): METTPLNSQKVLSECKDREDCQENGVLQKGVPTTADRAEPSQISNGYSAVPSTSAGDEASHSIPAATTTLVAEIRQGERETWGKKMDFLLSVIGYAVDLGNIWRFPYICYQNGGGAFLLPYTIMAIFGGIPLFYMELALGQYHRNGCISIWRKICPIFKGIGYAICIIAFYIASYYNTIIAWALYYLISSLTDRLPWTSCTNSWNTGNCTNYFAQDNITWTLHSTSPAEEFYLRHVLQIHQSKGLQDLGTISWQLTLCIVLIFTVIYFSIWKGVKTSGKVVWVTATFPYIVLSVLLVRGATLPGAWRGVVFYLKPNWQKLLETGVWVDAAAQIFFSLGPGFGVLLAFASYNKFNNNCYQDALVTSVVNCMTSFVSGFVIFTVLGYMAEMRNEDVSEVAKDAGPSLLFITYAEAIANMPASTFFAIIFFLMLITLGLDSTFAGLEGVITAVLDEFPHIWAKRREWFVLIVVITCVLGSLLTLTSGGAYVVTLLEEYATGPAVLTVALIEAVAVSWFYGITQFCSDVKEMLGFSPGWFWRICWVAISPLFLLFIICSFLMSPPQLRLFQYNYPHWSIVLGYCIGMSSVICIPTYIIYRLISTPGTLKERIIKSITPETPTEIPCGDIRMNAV
One number for each entry, in %.

Some entries whose results are on file:
| MOLECULE | MEASURED |
| --- | --- |
| CN(C)C(c1cccc(F)c1)C1CCC(NC(=O)COCCN(C)S(=O)(=O)c2ccc(Cl)cc2Cl)CC1 (stereo not shown) | 85 |
| COc1cc(C)c(S(=O)(=O)N2CCC(OCC(=O)NCC3CCC(C(CCc4ccccc4)N(C)C)CC3)C2)c(C)c1 (stereo not shown) | 94 |
| CC(Oc1ccccc1)C(=O)NCC1CCC(C(CCc2ccccc2)N(C)C)CC1 (stereo not shown) | 48 |

We next turn to a different molecule, shown below.
Prompt: Looking for the measured 5-HT (inhibition of reuptake of serotonin, % inhibition) of CN(C)C(c1ccc(Cl)cc1)C1CCC(CNC(=O)COC2CCN(S(=O)(=O)c3ccc(Cl)cc3)C2)CC1 (stereo not shown) , can you help?
Completion: 87
